# targetEntity: Phosphatidylinositol 4-phosphate 3-kinase C2 domain-containing subunit beta (Homo sapiens, UniProt O00750)
# Sequence (O00750 whole entry, the tested form may be a part): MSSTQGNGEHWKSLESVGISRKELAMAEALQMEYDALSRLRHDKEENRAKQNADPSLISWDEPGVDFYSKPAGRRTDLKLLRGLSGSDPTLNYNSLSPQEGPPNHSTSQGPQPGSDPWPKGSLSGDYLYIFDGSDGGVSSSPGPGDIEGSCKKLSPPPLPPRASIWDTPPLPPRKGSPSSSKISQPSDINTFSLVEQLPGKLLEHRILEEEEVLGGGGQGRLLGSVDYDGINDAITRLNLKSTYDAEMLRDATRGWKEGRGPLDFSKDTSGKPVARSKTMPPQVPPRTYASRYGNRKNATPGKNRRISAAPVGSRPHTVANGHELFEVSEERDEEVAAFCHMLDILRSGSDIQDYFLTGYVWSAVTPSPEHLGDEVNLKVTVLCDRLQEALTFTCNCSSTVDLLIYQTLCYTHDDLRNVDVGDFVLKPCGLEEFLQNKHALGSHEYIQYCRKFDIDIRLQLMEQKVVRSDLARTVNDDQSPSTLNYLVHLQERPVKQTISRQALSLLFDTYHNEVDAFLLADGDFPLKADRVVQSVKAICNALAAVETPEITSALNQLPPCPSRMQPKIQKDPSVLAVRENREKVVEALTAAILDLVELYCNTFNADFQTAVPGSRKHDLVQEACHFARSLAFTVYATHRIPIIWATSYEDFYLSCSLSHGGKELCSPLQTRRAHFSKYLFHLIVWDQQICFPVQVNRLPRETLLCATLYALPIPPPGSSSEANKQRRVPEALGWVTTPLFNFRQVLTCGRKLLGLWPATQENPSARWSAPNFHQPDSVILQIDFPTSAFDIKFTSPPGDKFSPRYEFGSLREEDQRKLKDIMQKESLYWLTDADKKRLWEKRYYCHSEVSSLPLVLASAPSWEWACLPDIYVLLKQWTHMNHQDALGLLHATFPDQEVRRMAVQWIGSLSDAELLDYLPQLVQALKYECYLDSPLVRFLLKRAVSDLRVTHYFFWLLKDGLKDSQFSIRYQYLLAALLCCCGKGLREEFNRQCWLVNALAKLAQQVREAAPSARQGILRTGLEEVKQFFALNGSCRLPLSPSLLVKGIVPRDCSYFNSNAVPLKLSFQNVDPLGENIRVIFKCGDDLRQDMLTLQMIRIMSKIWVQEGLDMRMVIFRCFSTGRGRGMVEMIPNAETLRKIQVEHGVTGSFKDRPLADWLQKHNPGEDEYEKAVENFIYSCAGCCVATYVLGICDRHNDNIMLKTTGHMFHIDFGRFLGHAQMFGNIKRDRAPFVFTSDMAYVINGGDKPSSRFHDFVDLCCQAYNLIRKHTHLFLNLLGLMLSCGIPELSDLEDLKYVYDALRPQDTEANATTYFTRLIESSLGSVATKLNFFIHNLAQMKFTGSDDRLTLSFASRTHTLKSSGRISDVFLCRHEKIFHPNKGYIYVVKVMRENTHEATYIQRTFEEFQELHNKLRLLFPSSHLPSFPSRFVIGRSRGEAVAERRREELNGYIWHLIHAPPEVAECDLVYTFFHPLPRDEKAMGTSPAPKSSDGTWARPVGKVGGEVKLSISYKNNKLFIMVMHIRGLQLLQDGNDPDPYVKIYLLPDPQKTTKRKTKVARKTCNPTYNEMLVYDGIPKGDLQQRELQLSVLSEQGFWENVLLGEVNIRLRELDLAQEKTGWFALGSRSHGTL
# testSummary: Inhibition of PIK3C2B (unknown origin) assessed as reduction in substrate phosphorylation by FRET Adapta assay
# reported IC50; entries follow
Note: unit nM is implicit; provide only the numeric part.

smilesRepresentation: Cc1nc2sc1-c1cc3c(c(c1)S(=O)(=O)NCCOCCNC(=O)c1cccc(n1)N2)C(=O)N([C@@H](C)C1CC1)C3
quantityUnit: nM
IC50: 0.794

Q) // query IC50 value for entry `Cc1nc(Nc2cccc(N3CCCC3=O)n2)sc1-c1cc2c(c(S(C)(=O)=O)c1)C(=O)N([C@@H](C)C1CC1)C2`
A) 3.16

====

# targetEntity: Phosphatidylinositol 4,5-bisphosphate 3-kinase catalytic subunit gamma isoform (Homo sapiens, UniProt P48736)
# Sequence (P48736 whole entry, canonical isoform): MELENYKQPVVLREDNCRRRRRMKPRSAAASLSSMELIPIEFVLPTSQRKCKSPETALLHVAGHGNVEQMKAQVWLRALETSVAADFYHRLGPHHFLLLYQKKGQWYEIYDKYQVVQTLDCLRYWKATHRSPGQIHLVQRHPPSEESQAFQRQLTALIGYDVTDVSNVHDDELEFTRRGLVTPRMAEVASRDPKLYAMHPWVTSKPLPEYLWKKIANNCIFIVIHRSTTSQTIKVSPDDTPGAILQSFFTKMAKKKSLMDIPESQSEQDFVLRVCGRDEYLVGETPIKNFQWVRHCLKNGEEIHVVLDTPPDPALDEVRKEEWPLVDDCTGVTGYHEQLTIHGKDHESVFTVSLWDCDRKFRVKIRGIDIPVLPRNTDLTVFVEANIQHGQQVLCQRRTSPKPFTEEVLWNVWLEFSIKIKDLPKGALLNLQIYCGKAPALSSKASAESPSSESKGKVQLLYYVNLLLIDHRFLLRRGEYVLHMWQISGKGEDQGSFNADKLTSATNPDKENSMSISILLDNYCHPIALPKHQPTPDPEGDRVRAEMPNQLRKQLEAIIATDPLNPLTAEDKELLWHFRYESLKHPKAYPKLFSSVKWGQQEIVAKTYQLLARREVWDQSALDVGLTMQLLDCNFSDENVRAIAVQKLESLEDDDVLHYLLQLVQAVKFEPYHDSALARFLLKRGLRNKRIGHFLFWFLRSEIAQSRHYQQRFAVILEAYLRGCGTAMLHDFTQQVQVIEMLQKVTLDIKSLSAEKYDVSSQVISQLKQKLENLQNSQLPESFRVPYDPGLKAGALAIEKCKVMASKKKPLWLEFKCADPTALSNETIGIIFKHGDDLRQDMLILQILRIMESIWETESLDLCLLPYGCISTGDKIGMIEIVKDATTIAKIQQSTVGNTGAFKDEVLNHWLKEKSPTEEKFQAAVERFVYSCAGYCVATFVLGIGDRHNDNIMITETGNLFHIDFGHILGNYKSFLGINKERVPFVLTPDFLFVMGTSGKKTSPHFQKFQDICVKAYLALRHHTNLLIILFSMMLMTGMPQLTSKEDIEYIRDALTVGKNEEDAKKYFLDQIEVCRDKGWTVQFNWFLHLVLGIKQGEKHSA
# testSummary: Inhibition of recombinant human PI3Kgamma assessed as reduction in ADP production using Dic8-PIP2 as substrate pre-treated for 15 mins followed by substrate addition measured after 60 mins by ADP-glo assay
# reported pIC50; entries follow
Worth noting: pIC50 values are minus log10 of concentrations stated in mol/L.

Q) // query pIC50 value for entry `CC(=O)Nc1nc(C)c(-c2cc3c(c(S(=O)(=O)Nc4cccc(CN(C)C)c4)c2)C(=O)N([C@@H](C)C2CC2)C3)s1`
A) 8.70

Q) // same read-out, input: `CC(=O)Nc1nc(C)c(-c2cc3c(c(S(=O)(=O)N(C)c4cccc(C#N)c4)c2)C(=O)N([C@@H](C)C2CC2)C3)s1`
A) 9.10

Q) // same read-out, input: `Cc1nc2sc1-c1cc3c(c(c1)S(=O)(=O)Nc1ccc(cc1)CN(C)CCCCNC(=O)c1cccc(n1)N2)C(=O)N([C@@H](C)C1CC1)C3`
A) 8.00

Q) // same read-out, input: `Cc1nc2sc1-c1cc3c(c(c1)S(=O)(=O)NCCOCCNC(=O)c1cccc(n1)N2)C(=O)N([C@@H](C)C1CC1)C3`
A) 8.60

====

# targetEntity: Phosphatidylinositol 4,5-bisphosphate 3-kinase catalytic subunit alpha isoform (Homo sapiens, UniProt P42336)
# testSummary: Inhibition of recombinant human PI3Kalpha assessed as reduction in ADP production using Dic8-PIP2 as substrate pre-treated for 15 mins followed by substrate addition measured after 60 mins by ADP-glo assay
observedProperty: IC50 (nM)
Note: unit nM is implicit; provide only the numeric part.

smilesRepresentation: Cc1nc(Nc2cccc(N3CCCC3=O)n2)sc1-c1cc2c(c(S(C)(=O)=O)c1)C(=O)N([C@@H](C)C1CC1)C2
IC50 [nM]: 63.1
--
smilesRepresentation: CNS(=O)(=O)c1cc(-c2sc(Nc3cccc(N4CCCOC4=O)n3)nc2C)cc2c1C(=O)N([C@@H](C)C1CC1)C2
IC50 [nM]: 20
--
smilesRepresentation: Cc1nc(Nc2cccc(N3CCNC3=O)n2)sc1-c1cc2c(c(S(=O)(=O)NC3COC3)c1)C(=O)N([C@@H](C)C1CC1)C2
IC50 [nM]: 31.6
--
smilesRepresentation: Cc1nc(Nc2cccc(N3CCCOC3=O)n2)sc1-c1cc2c(c(S(C)(=O)=O)c1)C(=O)N([C@@H](C)C1CC1)C2
IC50 [nM]: 20
--
smilesRepresentation: Cc1nc2sc1-c1cc3c(c(c1)S(=O)(=O)NCCN(C)CCCNC(=O)c1cccc(n1)N2)C(=O)N([C@@H](C)C1CC1)C3
IC50 [nM]: 50.1
--
smilesRepresentation: CNS(=O)(=O)c1cc(-c2sc(Nc3cccc(N4CCNCC4=O)n3)nc2C)cc2c1C(=O)N([C@@H](C)C1CC1)C2
IC50 [nM]: 39.8

Next, consider the following compound.
Q) // query IC50 value for entry `Cc1nc(Nc2cccc(N3CCOCC3=O)n2)sc1-c1cc2c(c(S(=O)(=O)NC3COC3)c1)C(=O)N([C@@H](C)C1CC1)C2`
A) 100

====

# testSummary: Dissociation constant, pKa of compound
# Type: physicochemical
observedProperty: pKa

Q) // query pKa value for entry `Cc1nc2sc1-c1cc3c(c(c1)S(=O)(=O)NCCN(C)CCNC(=O)c1cccc(n1)N2)C(=O)N([C@@H](C)C1CC1)C3`
A) 6.4

====

# reported pIC50; entries follow
# targetEntity: Phosphatidylinositol 4,5-bisphosphate 3-kinase catalytic subunit delta isoform (Homo sapiens, UniProt O00329)
# Sequence (O00329 whole entry, canonical isoform): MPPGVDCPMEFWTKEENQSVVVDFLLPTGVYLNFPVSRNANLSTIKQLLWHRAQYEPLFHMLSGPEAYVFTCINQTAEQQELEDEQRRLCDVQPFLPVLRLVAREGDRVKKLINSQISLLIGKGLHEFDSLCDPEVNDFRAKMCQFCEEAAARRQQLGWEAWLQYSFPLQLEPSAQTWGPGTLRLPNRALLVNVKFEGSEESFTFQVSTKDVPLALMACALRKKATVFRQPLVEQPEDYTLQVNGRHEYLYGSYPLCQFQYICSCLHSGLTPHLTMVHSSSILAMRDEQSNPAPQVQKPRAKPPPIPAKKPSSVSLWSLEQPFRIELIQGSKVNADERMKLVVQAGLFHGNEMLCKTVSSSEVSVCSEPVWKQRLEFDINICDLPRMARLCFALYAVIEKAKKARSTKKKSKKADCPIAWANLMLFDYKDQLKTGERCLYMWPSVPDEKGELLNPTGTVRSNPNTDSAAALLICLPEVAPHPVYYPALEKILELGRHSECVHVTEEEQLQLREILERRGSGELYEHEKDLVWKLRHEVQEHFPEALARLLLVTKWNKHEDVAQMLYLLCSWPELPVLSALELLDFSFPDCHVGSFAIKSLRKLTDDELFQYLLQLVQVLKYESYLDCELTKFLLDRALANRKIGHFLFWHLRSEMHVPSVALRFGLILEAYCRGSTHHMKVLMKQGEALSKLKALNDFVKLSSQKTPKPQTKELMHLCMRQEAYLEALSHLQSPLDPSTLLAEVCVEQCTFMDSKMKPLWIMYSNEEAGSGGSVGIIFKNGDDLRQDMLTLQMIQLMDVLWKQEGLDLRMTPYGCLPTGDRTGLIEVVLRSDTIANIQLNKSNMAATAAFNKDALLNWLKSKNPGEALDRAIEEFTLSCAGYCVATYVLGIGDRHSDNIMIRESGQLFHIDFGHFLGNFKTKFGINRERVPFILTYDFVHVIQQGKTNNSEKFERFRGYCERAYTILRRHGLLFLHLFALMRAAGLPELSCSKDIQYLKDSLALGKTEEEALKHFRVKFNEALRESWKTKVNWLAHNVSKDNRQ
# testSummary: Inhibition of PI3Kdelta in anti-IgM-stimulated human JeKo-1 cells assessed as inhibition of AKT phosphorylation at Ser473 residue incubated for 60 mins by TR-FRET assay
Worth noting: pIC50 values are minus log10 of concentrations stated in mol/L.

Sample records with pIC50:
smilesRepresentation: CNS(=O)(=O)c1cc(-c2sc(Nc3cccc(N4C[C@H](O)CC4=O)n3)nc2C)cc2c1C(=O)N([C@@H](C)C1CC1)C2
pIC50: 8.10
//
smilesRepresentation: Cc1nc(Nc2cccc(N3CCN(C)C3=O)n2)sc1-c1cc2c(c(S(C)(=O)=O)c1)C(=O)N([C@@H](C)C1CC1)C2
pIC50: 8.40
//
smilesRepresentation: CNS(=O)(=O)c1cc(-c2sc(Nc3cccc(N4CCOCC4=O)n3)nc2C)cc2c1C(=O)N([C@@H](C)C1CC1)C2
pIC50: 8.40

Q) // query pIC50 value for entry `CNS(=O)(=O)c1cc(-c2sc(Nc3cccc(N4CC[C@@H](O)C4=O)n3)nc2C)cc2c1C(=O)N([C@@H](C)C1CC1)C2`
A) 8.40

====

# reported Tm; entries follow
# testSummary: Thermodynamic stability assessed as onset melting temperature
# Format: physicochemical
Answer as a quantity: numeral, then unit.

Sample records with Tm:
compound: Cc1nc(Nc2cccc(N3CCCC3=O)n2)sc1-c1cc2c(c(S(C)(=O)=O)c1)C(=O)N([C@@H](C)C1CC1)C2 [AZD-8154]
Tm: 285 °C

compound: Cc1nc(Nc2cccc(N3CCOCC3=O)n2)sc1-c1cc2c(c(S(=O)(=O)NC3COC3)c1)C(=O)N([C@@H](C)C1CC1)C2
Tm: 187 °C

compound: Cc1nc2sc1-c1cc3c(c(c1)S(=O)(=O)NCCN(C)CCNC(=O)c1cccc(n1)N2)C(=O)N([C@@H](C)C1CC1)C3
Tm: 349 °C

Next, consider the following compound.
Q) // query Tm value for entry `Cc1nc2sc1-c1cc3c(c(c1)S(=O)(=O)NCCOCCNC(=O)c1cccc(n1)N2)C(=O)N([C@@H](C)C1CC1)C3`
A) 377 °C

====

# testSummary: Half life in rat plasma at 0.5 mg/kg, iv
# Format: ADME, organism-based
observedProperty: half-life (min)
Note: unit min is implicit; provide only the numeric part.

Sample records with half-life:
smilesRepresentation: Cc1nc2sc1-c1cc3c(c(c1)S(=O)(=O)NCCN(C)CCNC(=O)c1cccc(n1)N2)C(=O)N([C@@H](C)C1CC1)C3
observedProperty: half-life
measValue: 108

smilesRepresentation: Cc1nc2sc1-c1cc3c(c(c1)S(=O)(=O)NCCOCCNC(=O)c1cccc(n1)N2)C(=O)N([C@@H](C)C1CC1)C3
observedProperty: half-life
measValue: 108

smilesRepresentation: Cc1nc(Nc2cccc(N3CCCC3=O)n2)sc1-c1cc2c(c(S(C)(=O)=O)c1)C(=O)N([C@@H](C)C1CC1)C2
observedProperty: half-life
measValue: 174

Next, consider the following compound.
Q) // query half-life value for entry `Cc1nc(Nc2cccc(N3CCOCC3=O)n2)sc1-c1cc2c(c(S(=O)(=O)NC3COC3)c1)C(=O)N([C@@H](C)C1CC1)C2`
A) 42

====

# targetEntity: Phosphatidylinositol 4,5-bisphosphate 3-kinase catalytic subunit gamma isoform (Mus musculus)
# Sequence (Q9JHG7 whole entry, canonical isoform): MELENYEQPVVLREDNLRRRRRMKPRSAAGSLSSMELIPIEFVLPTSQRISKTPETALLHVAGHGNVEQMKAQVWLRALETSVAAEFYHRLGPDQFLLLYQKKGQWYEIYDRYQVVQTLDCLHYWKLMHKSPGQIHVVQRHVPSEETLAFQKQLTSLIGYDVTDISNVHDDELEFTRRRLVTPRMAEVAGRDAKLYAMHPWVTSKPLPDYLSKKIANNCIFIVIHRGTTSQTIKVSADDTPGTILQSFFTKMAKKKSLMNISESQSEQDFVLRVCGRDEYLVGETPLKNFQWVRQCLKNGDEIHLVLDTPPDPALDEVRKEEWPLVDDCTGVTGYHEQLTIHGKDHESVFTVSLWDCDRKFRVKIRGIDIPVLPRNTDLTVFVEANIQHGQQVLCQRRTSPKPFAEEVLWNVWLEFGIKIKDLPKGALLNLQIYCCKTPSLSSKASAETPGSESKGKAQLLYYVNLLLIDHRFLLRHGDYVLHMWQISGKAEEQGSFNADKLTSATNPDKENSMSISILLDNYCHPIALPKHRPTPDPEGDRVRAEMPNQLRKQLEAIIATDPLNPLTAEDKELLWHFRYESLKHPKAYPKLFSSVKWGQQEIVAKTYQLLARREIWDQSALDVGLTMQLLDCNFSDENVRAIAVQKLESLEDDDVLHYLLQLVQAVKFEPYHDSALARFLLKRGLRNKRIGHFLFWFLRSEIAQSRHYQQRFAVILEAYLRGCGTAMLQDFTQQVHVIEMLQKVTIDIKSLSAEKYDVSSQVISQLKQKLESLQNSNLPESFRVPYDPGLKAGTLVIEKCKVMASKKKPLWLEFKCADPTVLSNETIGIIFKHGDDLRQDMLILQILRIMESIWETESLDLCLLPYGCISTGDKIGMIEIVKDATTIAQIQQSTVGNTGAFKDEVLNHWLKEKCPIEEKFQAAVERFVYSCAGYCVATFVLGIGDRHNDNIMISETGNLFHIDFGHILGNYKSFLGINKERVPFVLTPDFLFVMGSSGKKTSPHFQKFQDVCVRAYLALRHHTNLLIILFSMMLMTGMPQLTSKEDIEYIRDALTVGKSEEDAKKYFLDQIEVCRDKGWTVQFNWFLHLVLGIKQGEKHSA
# testSummary: Inhibition of PI3Kgamma in C5a-stimulated mouse RAW 264 cells assessed as inhibition of AKT phosphorylation at Ser473 residue Pretreated for 15 mins followed by C5a stimulation measured after 3 mins by HTRF assay
# reported IC50; entries follow
Note: unit nM is implicit; provide only the numeric part.

Sample records with IC50:
compound: CNS(=O)(=O)c1cc(-c2sc(Nc3cccc(N(C)C(C)=O)n3)nc2C)cc2c1C(=O)N([C@@H](C)C1CC1)C2
quantityUnit: nM
IC50: 1
--
compound: Cc1nc(Nc2cccc(N3CCCC3=O)n2)sc1-c1cc2c(c(S(C)(=O)=O)c1)C(=O)N([C@@H](C)C1CC1)C2 [AZD-8154]
quantityUnit: nM
IC50: 0.794
--
compound: Cc1nc2sc1-c1cc3c(c(c1)S(=O)(=O)NCCOCCNC(=O)c1cccc(n1)N2)C(=O)N([C@@H](C)C1CC1)C3
quantityUnit: nM
IC50: 0.794
--
compound: Cc1nc(Nc2cccc(N3CCNC3=O)n2)sc1-c1cc2c(c(S(=O)(=O)NC3COC3)c1)C(=O)N([C@@H](C)C1CC1)C2
quantityUnit: nM
IC50: 2
--
compound: CNS(=O)(=O)c1cc(-c2sc(Nc3cccc(N4CCNCC4=O)n3)nc2C)cc2c1C(=O)N([C@@H](C)C1CC1)C2
quantityUnit: nM
IC50: 3.98

Q) // query IC50 value for entry `CNS(=O)(=O)c1cc(-c2sc(Nc3cccc(N4CCOCC4=O)n3)nc2C)cc2c1C(=O)N([C@@H](C)C1CC1)C2`
A) 0.794

Q) // same read-out, input: `Cc1nc(Nc2cccc(N3CCCCC3=O)n2)sc1-c1cc2c(c(S(C)(=O)=O)c1)C(=O)N([C@@H](C)C1CC1)C2`
A) 1.58
